Ref: the supplement of paper PMC10567573

Reported protein stability index by item:
B1: TRIM15 (parent)
chain: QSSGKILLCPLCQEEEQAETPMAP

variants of: B1; experiment: protein stability index of a GFP-peptide fusion (GPS, HEK-293T) (PSI 1-6); higher = more stable; settings: c terminus: a fixed tail appended;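 further: lentivirally expressed fusions sorted by FACS into six bins by GFP to DsRed ratio, PSI derived from sequencing read proportions per bin multiplied by bin number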
Write the value as a bare number.

So, E15C ? Its protein stability index was 2.49
